System: Enterococcus sp.
Assay: In vitro antibacterial evaluation: minimum inhibitory concentration (MIC), broth dilution method
Type: cell-based
Settings: Enterococcus faecalis (GC 6189); broth dilution, 18 hours at 35° C.
parameter_measured: MIC Enterococcus faecalis (GC 6189) (µg/mL)
Numeric answer only, unit µg/mL assumed.

Which value of MIC Enterococcus faecalis (GC 6189) has been reported for CC(c1ccccc1)C1NC(=O)CNC(=O)C(CO)NC(=O)C(C(O)C2CNC(=N)N2C2OC(CO)C(O)C(O)C2O)NC(=O)C(C(O)C2CNC(=N)N2)NC(=O)C(Cc2ccc3oc(SCc4ccc(-c5ccccc5)cc4)nc3c2)NC1=O (stereo not shown) in the records?
32

Now look at this entry.
Which value of MIC Enterococcus faecalis (GC 6189) has been reported for CC(c1ccccc1)C1NC(=O)CNC(=O)C(CO)NC(=O)C(C(O)C2CNC(=N)N2C2OC(CO)C(O)C(O)C2O)NC(=O)C(C(O)C2CNC(=N)N2)NC(=O)C(Cc2ccc3oc(SCC(=O)c4ccc(Cl)cc4)nc3c2)NC1=O (stereo not shown) in the records?
16

---

Form field: MIC Staphylococcus aureus-SMITH (GC 4543) (one value per entry).
Test system: Staphylococcus sp.
Test: In vitro antibacterial evaluation: minimum inhibitory concentration (MIC), broth dilution method
Type: cell-based
Details: strain SMITH GC 4543; broth dilution, 18 hours at 35° C.
From the text: […]

Some solved entries appear below for comparison.
Which value of MIC Staphylococcus aureus-SMITH (GC 4543) has been reported for CC(c1ccccc1)C1NC(=O)CNC(=O)C(CO)NC(=O)C(C(O)C2CN(Cc3ccc4ccccc4c3)C(=N)N2C2OC(CO)C(O)C(O)C2O)NC(=O)C(C(O)C2CNC(=N)N2)NC(=O)C(Cc2ccc(OC3OC(CO)C(OC4OC5COC6(OC5C(O)C4O)C4CC5CC(C4)CC6C5)C(O)C3O)cc2)NC1=O (centres unmarked) in the records?
4 µg/mL

Which value of MIC Staphylococcus aureus-SMITH (GC 4543) has been reported for CC(c1ccccc1)C1NC(=O)CNC(=O)C(CO)NC(=O)C(C(O)C2CNC(=N)N2C2OC(CO)C(O)C(O)C2O)NC(=O)C(C(O)C2CNC(=N)N2)NC(=O)C(Cc2ccc3oc(-c4ccoc4)nc3c2)NC1=O (centres unmarked) in the records?
64 µg/mL

Next:
Which value of MIC Staphylococcus aureus-SMITH (GC 4543) has been reported for CC(c1ccccc1)C1NC(=O)CNC(=O)C(CO)NC(=O)C(C(O)C2CNC(=N)N2C2OC(CO)C(O)C(O)C2O)NC(=O)C(C(O)C2CNC(=N)N2)NC(=O)C(Cc2ccc(O)c(NC(=O)c3ccccc3)c2)NC1=O (centres unmarked) in the records?
>64 µg/mL

Which value of MIC Staphylococcus aureus-SMITH (GC 4543) has been reported for COc1cc(-c2nc3cc(CC4NC(=O)C(C(C)c5ccccc5)NC(=O)CNC(=O)C(CO)NC(=O)C(C(O)C5CNC(=N)N5C5OC(CO)C(O)C(O)C5O)NC(=O)C(C(O)C5CNC(=N)N5)NC4=O)ccc3o2)cc(OC)c1OC (centres unmarked) in the records?
16 µg/mL

Which value of MIC Staphylococcus aureus-SMITH (GC 4543) has been reported for CC(c1ccccc1)C1NC(=O)CNC(=O)C(CO)NC(=O)C(C(O)C2CNC(=N)N2C2OC(CO)C(O)C(O)C2O)NC(=O)C(C(O)C2CNC(=N)N2)NC(=O)C(Cc2ccc3oc(-c4ccc(Br)cc4)nc3c2)NC1=O (centres unmarked) in the records?
8 µg/mL

Values were extracted from patent US8247211B2.
